test system: hTERT-HMEC; assay: percentage of EdU-negative (G0-arrested) nuclei per well, 72 h; higher = more G0 arrest; details: protein concentration 0.225 µM; reference: sequence is the full UniProt precursor, the tested protein was the secreted form or ectodomain;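 also: secreted proteins added to cultured cells, EdU pulse at the end, nuclei found by Hoechst imaging, EdU status from nuclear versus surrounding ring intensity ratio, PBS as neutral control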
Kindly return class 1 if reported percentage of EdU-negative is no lower than 5%; return class 0 if it is lower.

>>> assigned_label("MKPLLVVFVFLFLWDPVLAGINSLSSEMHKKCYKNGICRLECYESEMLVAYCMFQLECCVKGNPAP [Q4QY38]")
"class 1"
>>> assigned_label("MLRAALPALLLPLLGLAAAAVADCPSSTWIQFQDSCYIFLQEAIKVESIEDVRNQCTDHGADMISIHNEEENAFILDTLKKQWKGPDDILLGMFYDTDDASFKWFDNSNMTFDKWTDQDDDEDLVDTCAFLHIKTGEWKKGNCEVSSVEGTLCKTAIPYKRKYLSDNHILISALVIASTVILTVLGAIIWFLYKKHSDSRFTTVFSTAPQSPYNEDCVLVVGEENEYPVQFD [Q8IX05]")
"class 1"

Decide: percentage of EdU-negative of MRLLVLLWGCLLLPGYEALEGPEEISGFEGDTVSLQCTYREELRDHRKYWCRKGGILFSRCSGTIYAEEEGQETMKGRVSIRDSRQELSLIVTLWNLTLQDAGEYWCGVEKRGPDESLLISLFVFPGPCCPPSPSPTFQPLATTRLQPKAKAQQTQPPGLTSPGLYPAATTAKQGKTGAEAPPLPGTSQYGHERTSQYTGTSPHPATSPPAGSSRPPMQLDSTSAEDTSPALSSGSSKPRVSIPMVRILAPVLVLLSLLSAAGLIAFCSHLLLWRKEAQQATETQRNEKFCLSRLTAEEKEAPSQAPEGDVISMPPLHTSEEELGFSKFVSA [K7EL06] >= 5%?
class 1

Decide: percentage of EdU-negative of MQLTRCCFVFLVQGSLYLVICGQDDGPPGSEDPERDDHEGQPRPRVPRKRGHISPKSRPMANSTLLGLLAPPGEAWGILGQPPNRPNHSPPPSAKVKKIFGWGDFYSNIKTVALNLLVTGKIVDHGNGTFSVHFQHNATGQGNISISLVPPSKAVEFHQEQQIFIEAKASKIFNCRMEWEKVERGRRTSLCTHDPAKICSRDHAQSSATWSCSQPFKVVCVYIAFYSTDYRLVQKVCPDYNYHSDTPYYPSG >= 5%?
class 1

Decide: percentage of EdU-negative of MTARAWASWRSSALLLLLVPGYFPLSHPMTVAGPVGGSLSVQCRYEKEHRTLNKFWCRPPQILRCDKIVETKGSAGKRNGRVSIRDSPANLSFTVTLENLTEEDAGTYWCGVDTPWLRDFHDPIVEVEVSVFPAGTTTASSPQSSMGTSGPPTKLPVHTWPSVTRKDSPEPSPHPGSLFSNVRFLLLVLLELPLLLSMLGAVLWVNRPQRSSRSRQNWPKGENQ >= 5%?
class 1

Decide: percentage of EdU-negative of MVGKLKQNLLLACLVISSVTVFYLGQHAMECHHRIEERSQPVKLESTRTTVRTGLDLKANKTFAYHKDMPLIFIGGVPRSGTTLMRAMLDAHPDIRCGEETRVIPRILALKQMWSRSSKEKIRLDEAGVTDEVLDSAMQAFLLEIIVKHGEPAPYLCNKDPFALKSLTYLSRLFPNAKFLLMVRDGRASVHSMISRKVTIAGFDLNSYRDCLTKWNRAIETMYNQCMEVGYKKCMLVHYEQLVLHPERWMRTLLKFLQIPWNHSVLHHEEMIGKAGGVSLSKVERSTDQVIKPVNVGALSKWVGKIPPDVLQDMAVIAPMLAKLGYDPYANPPNYGKPDPKIIENTRRVYKGEFQLPDFLKEKPQTEQVE >= 5%?
class 1

Decide: percentage of EdU-negative of MRPQGPAASPQRLRGLLLLLLLQLPAPSSASEIPKGKQKAQLRQREVVDLYNGMCLQGPAGVPGRDGSPGANGIPGTPGIPGRDGFKGEKGECLRESFEESWTPNYKQCSWSSLNYGIDLGKIAECTFTKMRSNSALRVLFSGSLRLKCRNACCQRWYFTFNGAECSGPLPIEAIIYLDQGSPEMNSTINIHRTSSVEGLCEGIGAGLVDVAIWVGTCSDYPKGDASTGWNSVSRIIIEELPK [Q96CG8] >= 5%?
class 0

Decide: percentage of EdU-negative of MIFLLLMLSLELQLHQIAALFTVTVPKELYIIEHGSNVTLECNFDTGSHVNLGAITASLQKVENDTSPHRERATLLEEQLPLGKASFHIPQVQVRDEGQYQCIIIYGVAWDYKYLTLKVKASYRKINTHILKVPETDEVELTCQATGYPLAEVSWPNVSVPANTSHSRTPEGLYQVTSVLRLKPPPGRNFSCVFWNTHVRELTLASIDLQSQMEPRTHPTWLLHIFIPFCIIAFIFIATVIALRKQLCQKLYSSKDTTKRPVTTTKREVNSAI [Q9BQ51] >= 5%?
class 1

Decide: percentage of EdU-negative of MGSGRRALSAVPAVLLVLTLPGLPVWAQNDTEPIVLEGKCLVVCDSNPATDSKGSSSSPLGISVRAANSKVAFSAVRSTNHEPSEMSNKTRIIYFDQILVNVGNFFTLESVFVAPRKGIYSFSFHVIKVYQSQTIQVNLMLNGKPVISAFAGDKDVTREAATNGVLLYLDKEDKVYLKLEKGNLVGGWQYSTFSGFLVFPL [Q9NTU7] >= 5%?
class 0

Decide: percentage of EdU-negative of MDPGLQQALNGMAPPGDTAMHVPAGSVASHLGTTSRSYFYLTTATLALCLVFTVATIMVLVVQRTDSIPNSPDNVPLKGGNCSEDLLCILKRAPFKKSWAYLQVAKHLNKTKLSWNKDGILHGVRYQDGNLVIQFPGLYFIICQLQFLVQCPNNSVDLKLELLINKHIKKQALVTVCESGMQTKHVYQNLSQFLLDYLQVNTTISVNVDTFQYIDTSTFPLENVLSIFLYSNSD >= 5%?
class 1
